Attribute: CC50 at 5 days
# procedure-summary: MTT cytotoxicity assay, MT-2 cells
# Format: cell-based, human
# condition-parameters: human, MTT, mean ± 1 SD, read-out: CC50 (50% cytotoxicity concentration)

# compound, value-units, op, CC50 at 5 days
records = [
    ("Cc1cn([C@H]2C[C@H](F)[C@@H](CO)O2)c(=O)[nH]c1=O [FdT, 3′-deoxy-3′-fluorothymidine]", "µM", "=", 36),
    ("Nc1nc(O)c2ncn(COC(CO)CO)c2n1 [GCV, ganciclovir]", "µM", ">", 100),
    ("Nc1ccn(C[C@@H](CO)OCP(=O)(O)O)c(=O)n1 [CDV]", "µM", ">", 100),
    ("NC(=O)c1ncn([C@@H]2O[C@H](CO)[C@@H](O)[C@H]2O)n1 [RBV, ribavirin]", "µM", "=", 18),
    ("Nc1ccn([C@H]2CC[C@@H](CO)O2)c(=O)n1 [ddC, 2′,3′-dideoxycytidine]", "µM", ">", 100),
]

---

# procedure-summary: MTT cytotoxicity assay, A549 cells
# Type: cell-based, human
# condition-parameters: human, MTT, mean ± 1 SD, read-out: CC50 (50% cytotoxicity concentration)
reported-metric: CC50 at 5 days (µM)

# compound, value-units, op, measured-result
data = [
    ("NC(=O)c1ncn([C@@H]2O[C@H](CO)[C@@H](O)[C@H]2O)n1 [RBV, ribavirin]", "µM", "=", 53),
    ("Nc1nc(O)c2ncn(COC(CO)CO)c2n1 [GCV, ganciclovir]", "µM", ">", 100),
    ("Nc1ccn(C[C@@H](CO)OCP(=O)(O)O)c(=O)n1 [CDV]", "µM", ">", 100),
    ("Cc1cn([C@H]2C[C@H](F)[C@@H](CO)O2)c(=O)[nH]c1=O [FdT, 3′-deoxy-3′-fluorothymidine]", "µM", "=", 7.6),
    ("Nc1ccn([C@H]2CC[C@@H](CO)O2)c(=O)n1 [ddC, 2′,3′-dideoxycytidine]", "µM", ">", 100),
]

These data points were gathered from paper PMC7218274.
